# Lookup of reported pIC50 keyed by entry
# system under test: hNaV1.7 (Homo sapiens, UniProt Q15858)
# Construct: expressed in transfected cells
# Sequence (Q15858 1-1977 isoform Q15858-3): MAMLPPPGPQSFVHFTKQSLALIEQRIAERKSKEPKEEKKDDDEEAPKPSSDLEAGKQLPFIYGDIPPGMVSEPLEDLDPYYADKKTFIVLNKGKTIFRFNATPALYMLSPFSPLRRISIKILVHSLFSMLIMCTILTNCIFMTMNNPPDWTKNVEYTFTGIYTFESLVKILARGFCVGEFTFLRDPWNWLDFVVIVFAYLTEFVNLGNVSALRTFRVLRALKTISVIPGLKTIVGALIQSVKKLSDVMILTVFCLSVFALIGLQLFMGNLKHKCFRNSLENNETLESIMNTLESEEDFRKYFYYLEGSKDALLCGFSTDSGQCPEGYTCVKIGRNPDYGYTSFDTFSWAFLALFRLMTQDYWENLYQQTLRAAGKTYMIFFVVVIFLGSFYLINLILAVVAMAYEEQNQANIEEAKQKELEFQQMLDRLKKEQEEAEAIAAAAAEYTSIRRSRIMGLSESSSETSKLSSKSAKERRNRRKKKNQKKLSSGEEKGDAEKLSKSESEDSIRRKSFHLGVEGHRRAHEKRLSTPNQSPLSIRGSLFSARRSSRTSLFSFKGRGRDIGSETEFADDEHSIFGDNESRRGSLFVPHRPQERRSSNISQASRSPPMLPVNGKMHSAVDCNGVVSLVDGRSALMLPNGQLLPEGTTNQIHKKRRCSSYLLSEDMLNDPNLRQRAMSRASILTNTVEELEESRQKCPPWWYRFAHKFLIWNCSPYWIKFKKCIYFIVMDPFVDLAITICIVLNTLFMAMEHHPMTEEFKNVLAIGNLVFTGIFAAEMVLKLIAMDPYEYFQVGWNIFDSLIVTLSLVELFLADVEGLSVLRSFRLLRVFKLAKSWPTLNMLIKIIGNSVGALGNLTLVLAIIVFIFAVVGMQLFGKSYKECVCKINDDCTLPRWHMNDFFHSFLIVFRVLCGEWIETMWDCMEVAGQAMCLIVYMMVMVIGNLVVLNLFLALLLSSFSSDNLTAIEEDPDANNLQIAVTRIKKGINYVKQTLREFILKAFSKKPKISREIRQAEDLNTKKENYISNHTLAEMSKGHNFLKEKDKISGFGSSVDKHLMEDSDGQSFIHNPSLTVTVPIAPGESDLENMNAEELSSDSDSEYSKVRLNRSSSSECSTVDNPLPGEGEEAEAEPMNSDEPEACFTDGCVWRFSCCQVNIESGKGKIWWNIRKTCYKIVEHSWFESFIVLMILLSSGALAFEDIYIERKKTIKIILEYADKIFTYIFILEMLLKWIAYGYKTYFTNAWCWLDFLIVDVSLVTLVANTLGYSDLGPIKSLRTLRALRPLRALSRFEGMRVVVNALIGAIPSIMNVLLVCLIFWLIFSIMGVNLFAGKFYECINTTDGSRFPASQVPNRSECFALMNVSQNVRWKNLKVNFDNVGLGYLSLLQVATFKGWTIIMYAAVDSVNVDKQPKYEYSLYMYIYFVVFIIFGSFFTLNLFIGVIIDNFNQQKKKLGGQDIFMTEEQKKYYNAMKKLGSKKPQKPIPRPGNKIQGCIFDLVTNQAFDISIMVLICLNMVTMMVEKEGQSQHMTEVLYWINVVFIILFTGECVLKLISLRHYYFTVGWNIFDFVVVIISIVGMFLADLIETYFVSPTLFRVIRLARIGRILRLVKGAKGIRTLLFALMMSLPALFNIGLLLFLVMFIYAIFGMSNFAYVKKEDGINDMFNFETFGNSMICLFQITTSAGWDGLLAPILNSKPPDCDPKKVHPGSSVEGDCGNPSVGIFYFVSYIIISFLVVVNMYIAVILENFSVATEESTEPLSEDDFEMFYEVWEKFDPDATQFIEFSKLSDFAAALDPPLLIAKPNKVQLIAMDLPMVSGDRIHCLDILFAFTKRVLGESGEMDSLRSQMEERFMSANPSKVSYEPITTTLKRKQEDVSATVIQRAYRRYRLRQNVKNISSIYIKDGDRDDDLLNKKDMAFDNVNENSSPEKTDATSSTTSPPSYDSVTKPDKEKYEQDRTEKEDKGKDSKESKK
# assay method text: Patch voltage clamp electrophysiology (EP), Syncropatch 384PE, Nav1.7 in CHO cells
# Assay type: cell-based
# settings: holding potential −50 mV, inhibition based on 7.5 min compound incubation, read-out: hNaV1.7 EP_SP
FYI, pIC50 means -log10 of a concentration in mol per litre.

Example results:
O=C(NS(=O)(=O)N1CCC(OC2CCCNC2)CC1)c1cc(Cl)c(OCC2CCCC2)cc1F (racemic) [Example 51, 2,2,2-trifluoroacetate] | 7.17
N#Cc1ccc(S(=O)(=O)NC(=O)c2cc(Cl)c(OCC3CCCC3)cc2F)cc1C(F)(F)F | 6.15

O=C(NS(=O)(=O)c1ccc(F)c2ncccc12)c1cc(Cl)c(OCC2CCCC2)cc1F has a reported pIC50 of 6.30

NC[C@@H]1CN(S(=O)(=O)NC(=O)c2cc(C3CC3)c(OCC3CCCC3)cc2F)CCO1 (single isomer, unassigned) [Example 25, 2,2,2-trifluoroacetate] has a reported pIC50 of 7.82

CCc1cc(C(=O)NS(=O)(=O)N2CCC(OC3CN(C)C3)CC2)c(F)cc1OCC1CCCC1 has a reported pIC50 of 7.66

O=C(NS(=O)(=O)c1c(F)cc(N2CCCCC2)cc1F)c1cc(Cl)c(OCC2CCCC2)cc1F has a reported pIC50 of 6.49

CN(C)C1CN(S(=O)(=O)NC(=O)c2cc(Cl)c(OCC3CCCC3)cc2F)C1 has a reported pIC50 of 6.47

* * *

# system under test: hNaV1.7 (Homo sapiens, UniProt Q15858)
# Construct: expressed in transfected cells
# assay method text: Patch voltage clamp electrophysiology (EP), Syncropatch 384PE, Nav1.7 in CHO cells
# Type: cell-based
# settings: holding potential −50 mV, inhibition based on 7.5 min compound incubation, read-out: hNaV1.7 EP_SP
recorded metric: IC50
Units required after the number.

Example results:
COc1ccc(COc2ccc(S(=O)(=O)NC(=O)c3cc(Cl)c(OCC4CCCC4)cc3F)cc2)cc1 | 120 nM
C[C@H]1CCc2ccccc2N1S(=O)(=O)NC(=O)c1cc(Cl)c(OCC2CCCC2)cc1F [(S) enantiomer of Example 18] | 500 nM
O=C(NS(=O)(=O)c1cnn(-c2cccc(C(F)(F)F)c2)c1)c1cc(Cl)c(OCC2CCCC2)cc1F | 790 nM

NC1CN(S(=O)(=O)NC(=O)c2cc(Cl)c(OCC3CCCC3)cc2F)C1 has a reported IC50 of 870 nM

O=C(NS(=O)(=O)C1CCNCC1)c1cc(Cl)c(OCC2CCCC2)cc1F has a reported IC50 of 790 nM

O=C(NS(=O)(=O)N1CCC(OC2CN(C3CC3)C2)CC1)c1cc(Cl)c(OCC2CCCC2)cc1F has a reported IC50 of 29 nM

O=C(NS(=O)(=O)N1CCCCCC1)c1cc(Cl)c(OCC2CCCC2)cc1F has a reported IC50 of 20 nM

Cc1ccccc1S(=O)(=O)NC(=O)c1cc(Cl)c(OCC2CCCC2)cc1F has a reported IC50 of 110 nM

* * *

# system under test: hNaV1.7 (Homo sapiens)
# Construct: expressed in transfected cells
# assay method text: Patch voltage clamp electrophysiology (EP), Syncropatch 384PE, Nav1.7 in CHO cells;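 further: Nav1.7 stably expressed from cDNA in CHO cells, holding potential of −50 mV kept for the entire experiment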
# Format: cell-based
# settings: holding potential −50 mV, inhibition based on 7.5 min compound incubation, read-out: hNaV1.7 EP_SP
pIC50: −log10 of the molar value.
# if value of pIC50 reaches 7, tag MET; if it stays below, tag NOT MET

CNC[C@@H]1CN(S(=O)(=O)NC(=O)c2cc(Cl)c(OCC3CCCC3)cc2F)CCO1 (single isomer, unassigned) | NOT MET

Consider the record given below.
# input Quick check, pIC50 >= 7? O=S(=O)(Nc1noc2cc(OCC3CCCC3)c(Cl)cc12)N1CCC(O[C@H]2CCNC2)CC1 (single isomer, unassigned) [Example 90, 2,2,2-trifluoroacetate]
# output NOT MET
